- Tested on: MYC
- test protocol: In vitro transcription-translation (IVTT) assay, MYC reporter
- Assay type: biochemical
- condition notes: IVTT assay, HeLa S3 lysate, MYC reporter, normalized sfGFP/mCherry ratio; half-log dilutions 30 μM-0.1 μM, 2 hrs at 30° C.
pIC50: −log10 of the molar value.
measured quantity: pIC50

## Task What measured pIC50 goes with COc1ccc(C[C@H]2NC[C@H](O)[C@H]2OC(=O)NCC[C@H]2CCCN2)cc1 ?
## Result > 5.00

## Task Try this compound too: CC(F)(F)c1ccc(C[C@H]2NC[C@H](O)[C@H]2OC(=O)NCC[C@@H]2CCCN2)cc1
## Result > 5.00

## Task Try this compound too: COc1ccc(C[C@H]2NC[C@H](O)[C@H]2OC(=O)NCc2ccc(C3CNC3)cc2)cc1
## Result > 5.00

## Task Try this compound too: COc1ccc(C[C@H]2NC[C@H](O)[C@H]2OC(=O)NCCc2ccc3c(c2)CNC3)cc1
## Result > 5.00

## Task Try this compound too: COc1ccc(C[C@H]2NC[C@H](O)[C@H]2OC(=O)NCc2cc(F)c(O)c(F)c2)cc1
## Result 4.70 to 5.00

## Task Try this compound too: COc1ccc(C[C@H]2NC[C@H](O)[C@H]2OC(=O)NCC2(F)CC2)cc1
## Result > 5.00

## Task Try this compound too: O=C(NCC[C@@H]1CCCN1)O[C@@H]1[C@@H](O)CN[C@@H]1Cc1ccc(-c2ccc(C(F)(F)F)cc2)cc1
## Result < 4.52

## Task Try this compound too: COc1ccc(C[C@H]2NC[C@H](O)[C@H]2OC(=O)NCCNc2cc[nH]n2)cc1
## Result 4.70 to 5.00

## Task Try this compound too: COc1ccc(C[C@H]2NC[C@H](O)[C@H]2OC(=O)NCC[C@H]2CCC3(CC3)N2)cc1
## Result < 4.52

## Task Try this compound too: COc1ccc(C[C@H]2NC[C@H](O)[C@H]2OC(=O)NCC2CCNCC2)cc1
## Result < 4.52

## Task Try this compound too: O=C(NCC[C@H]1CCCN1)O[C@@H]1[C@@H](O)CN[C@@H]1Cc1ccc(-c2ccc(S(F)(F)(F)(F)F)cc2)cc1
## Result < 4.52

## Task Try this compound too: COc1ccc(C[C@H]2NC[C@H](O)[C@H]2OC(=O)NCC(F)(F)c2ccccc2)cc1
## Result 4.52 to 4.70

## Task Try this compound too: O=C(NCc1cccc(F)c1)O[C@@H]1[C@@H](O)CN[C@@H]1Cc1ccc(OC(F)(F)F)cc1
## Result < 4.52

## Task Try this compound too: NS(=O)(=O)c1ccc(CNC(=O)O[C@@H]2[C@@H](O)CN[C@@H]2Cc2ccc(Cl)cc2)cc1
## Result 4.70 to 5.00

## Task Try this compound too: O=C(NCc1cccc(F)c1)O[C@@H]1[C@@H](O)CN[C@@H]1Cc1ccc(-c2nncs2)cc1
## Result > 5.00

## Task Try this compound too: O=C(NCCC1CCNCC1)O[C@@H]1[C@@H](O)CN[C@@H]1Cc1ccc(-c2cnco2)cc1
## Result > 5.00

* * *

- Test system: KRAS G12D
- test protocol: In vitro transcription-translation (IVTT) assay, KRAS G12D reporter
- Format: biochemical
- condition notes: HeLa S3 lysate, sfGFP/mCherry ratio, 2 hrs at 30° C.
pIC50: −log10 of the molar value.
measured quantity: pIC50

## Task What measured pIC50 goes with COc1ccc(C[C@H]2NC[C@H](O)[C@H]2OC(=O)NCCN2CC(O)C(F)(F)C2)cc1 (stereo partly shown) ?
## Result 4.52 to 4.70

## Task Try this compound too: COc1ccc(C[C@H]2NC[C@H](O)[C@H]2OC(=O)NCCN2CCC3(CC(O)C3)C2)cc1 (stereo partly shown)
## Result < 4.52

## Task Try this compound too: COc1ccc(C[C@H]2NC[C@H](O)[C@H]2OC(=O)NC[C@@H]2CCNC2)cc1
## Result 4.70 to 5.00

## Task Try this compound too: CCC(=O)NNC(=O)O[C@@H]1[C@@H](O)CN[C@@H]1Cc1ccc(OC)cc1
## Result 4.70 to 5.00

## Task Try this compound too: COc1ccc(C[C@H]2NC[C@H](O)[C@H]2OC(=O)Nc2nsc(C)n2)cc1
## Result < 4.52

## Task Try this compound too: COc1ccc(C[C@H]2NC[C@H](O)[C@H]2OC(=O)NCCOCCN2C(=O)CNC2=O)cc1
## Result 4.52 to 4.70

## Task Try this compound too: COc1ccc(C[C@H]2NC[C@H](O)[C@H]2OC(=O)NNCc2ccno2)cc1
## Result 4.70 to 5.00

* * *

- System: CCND1
- test protocol: In vitro transcription-translation (IVTT) assay, CCND1 reporter
- Type: biochemical
- condition notes: HeLa S3 lysate, sfGFP/mCherry ratio, 2 hrs at 30° C.
pIC50: −log10 of the molar value.
Provide the recorded pIC50 for the entries that follow.

## Task What measured pIC50 goes with COc1ccc(C[C@H]2NC[C@H](O)[C@H]2OC(=O)NNC(=O)c2ccccc2)cc1 ?
## Result > 5.00

## Task Try this compound too: COc1ccc(C[C@H]2NC[C@H](O)[C@H]2OC(=O)NCC(=O)NCC(N)=O)cc1
## Result 4.52 to 4.70

## Task Try this compound too: COc1ccc(C[C@H]2NC[C@H](O)[C@H]2OC(=O)NC[C@H]2CNC[C@@H]2O)cc1
## Result < 4.52

## Task Try this compound too: COc1ccc(C[C@H]2NC[C@H](O)[C@H]2OC(=O)NCc2ccncc2)cc1
## Result > 5.00

## Task Try this compound too: COc1ccc(C[C@H]2NC[C@H](O)[C@H]2OC(=O)NCCNc2ncccn2)cc1
## Result < 4.52

## Task Try this compound too: COc1ccc(C[C@H]2NC[C@H](O)[C@H]2OC(=O)NCc2ccnnc2)cc1
## Result > 5.00

## Task Try this compound too: COc1ccc(C[C@H]2NC[C@H](O)[C@H]2OC(=O)NCC(=O)N[C@@H](C)C(N)=O)cc1
## Result < 4.52

## Task Try this compound too: COc1ccc(C[C@H]2NC[C@H](O)[C@H]2OC(=O)NCCNc2ncnc3nc[nH]c23)cc1
## Result 4.52 to 4.70

* * *

Provide the recorded pIC50 for the entries that follow.
- System: CCNTB1
- test protocol: In vitro transcription-translation (IVTT) assay, CCNTB1 reporter
- Type: biochemical
- condition notes: HeLa S3 lysate, 2 hrs at 30° C.
pIC50: −log10 of the molar value.

## Task What measured pIC50 goes with COc1ccc(C[C@H]2NC[C@H](O)[C@H]2OC(=O)NCCC23CCCN2CCC3)cc1 [V188135] ?
## Result 4.70 to 5.00

## Task Try this compound too: COc1ccc(C[C@H]2NC[C@H](O)[C@H]2OC(=O)NCc2ccccc2C#N)cc1 [V191911]
## Result > 5.00

## Task Try this compound too: COc1ccc(C[C@H]2NC[C@H](O)[C@H]2OC(=O)NCC23CC(C2)C3)cc1 [V188324]
## Result > 5.00

## Task Try this compound too: O=C(NCC1(F)CC1)O[C@@H]1[C@@H](O)CN[C@@H]1Cc1ccc(Cl)cc1 [V188269]
## Result > 5.00

* * *

Provide the recorded IC50 for the entries that follow.
- System: KLE
- test protocol: Cell viability (CellTiter-Fluor), KLE
- Format: cell-based
- condition notes: Homo sapiens, 24-72 hrs

## Task Request body: readout IC50, system KLE, query COc1ccc(C[C@H]2NC[C@H](O)[C@H]2OC(=O)NCc2c[nH]nn2)cc1 . Return the value.
## Result 1000 to 4000 nM

## Task Try this compound too: COc1ccc(C[C@H]2NC[C@H](O)[C@H]2OC(=O)NCc2ccncc2)cc1
## Result 250 to 1000 nM

## Task Try this compound too: COc1ccc(C[C@H]2NC[C@H](O)[C@H]2OC(=O)NCc2ccnc(N)c2)cc1
## Result 250 to 1000 nM

## Task Try this compound too: COc1ccc(C[C@H]2NC[C@H](O)[C@H]2OC(=O)NCc2ccccc2)cc1
## Result < 250 nM

## Task Try this compound too: COc1ccc(C[C@H]2NC[C@H](O)[C@H]2OC(=O)NCCc2cn[nH]c2)cc1
## Result 250 to 1000 nM

* * *

- Test system: MYC
- test protocol: In vitro transcription-translation (IVTT) assay, MYC reporter
- Format: biochemical
- condition notes: IVTT assay, HeLa S3 lysate, MYC reporter, normalized sfGFP/mCherry ratio; half-log dilutions 30 μM-0.1 μM, 2 hrs at 30° C.
- Description: All reporter constructs have been cloned into the pT7CFE1-CHis plasmid (ThermoFisher #88860) using Gibson assembly procedures (NEB #E2611L). […] All reporters are designed to be inserted at the MCS to include a red fluorescent protein (mCherry), P2A self-cleaving peptide which releases the preceding mCherry protein product, and a fusion open reading frame containing a 3×FLAG epitope, a peptide sequence of interest (TEST), and green fluorescent protein (sfGFP). […]
measured quantity: IC50

## Task What measured IC50 goes with O=C(NCC[C@@H]1CCCN1)O[C@@H]1[C@@H](O)CN[C@@H]1Cc1ccc(F)cc1 ?
## Result < 10 µM

## Task Try this compound too: O=C(NCc1ccccc1)O[C@@H]1[C@@H](O)CN[C@@H]1Cn1cccn1
## Result > 30 µM

## Task Try this compound too: O=C(NCc1cccc(F)c1)O[C@@H]1[C@@H](O)CN[C@@H]1Cc1ccc(-c2cnc(C(F)F)s2)cc1
## Result < 10 µM

## Task Try this compound too: O=C(NCc1cccc(F)c1)O[C@@H]1[C@@H](O)CN[C@@H]1Cc1ccc(-c2ccc(Cl)s2)cc1
## Result > 30 µM

## Task Try this compound too: COc1ccc(C[C@H]2NC[C@H](O)[C@H]2OC(=O)NC[C@H]2CCN(c3nccs3)C2)cc1
## Result 10 to 20 µM

## Task Try this compound too: COc1ccc(C[C@H]2NC[C@H](O)[C@H]2OC(=O)NCC[C@@H]2CCCN2)cc1
## Result < 10 µM

## Task Try this compound too: O=C(NCC[C@H]1CCCCNC1)O[C@@H]1[C@@H](O)CN[C@@H]1Cc1ccc(-c2cnco2)cc1
## Result < 10 µM

## Task Try this compound too: COc1ccc(C[C@H]2NC[C@H](O)[C@H]2OC(=O)NCCc2cnoc2)cc1
## Result < 10 µM

## Task Try this compound too: O=C(NCC[C@@H]1CCCN1)O[C@@H]1[C@@H](O)CN[C@@H]1Cc1ccc(-c2cnns2)cc1
## Result < 10 µM

## Task Try this compound too: O=C(NCc1cccc(F)c1)O[C@@H]1[C@@H](O)CN[C@@H]1Cc1ccc(-c2cnn(C(F)F)c2)cc1
## Result < 10 µM

## Task Try this compound too: O=C(NCc1cc(F)cc(F)c1)O[C@@H]1[C@@H](O)CN[C@@H]1Cc1ccc(-c2cnco2)cc1
## Result < 10 µM

## Task Try this compound too: Cn1cc(-c2ccc(C[C@H]3NC[C@H](O)[C@H]3OC(=O)NCc3ccccc3)cc2)nn1
## Result < 10 µM

## Task Try this compound too: COc1ccc(C[C@H]2NC[C@H](O)[C@H]2OC(=O)NCc2ccc(C#N)cc2)cc1
## Result < 10 µM

## Task Try this compound too: COc1ccc(C[C@H]2NC[C@H](O)[C@H]2OC(=O)NCc2cnsc2)cc1
## Result < 10 µM

## Task Try this compound too: COc1ccc(C[C@H]2NC[C@H](O)[C@H]2OC(=O)NCCC2CCNCC2)cc1
## Result < 10 µM

## Task Try this compound too: COc1ccc(C[C@H]2NC[C@H](O)[C@H]2OC(=O)NCC23CC(C2)C3)cc1
## Result 10 to 20 µM

## Task Try this compound too: CC(C)CCNC(=O)O[C@@H]1[C@@H](O)CN[C@@H]1Cc1ccc(-c2cncs2)cc1
## Result < 10 µM

## Task Try this compound too: O=C(NCc1cccc(F)c1)O[C@@H]1[C@@H](O)CN[C@@H]1Cc1ccc(-c2cnc(N3CC(F)(F)C3)s2)cc1
## Result < 10 µM

## Task Try this compound too: COc1ccc(C[C@H]2NC[C@H](O)[C@H]2OC(=O)NCc2ccc3[nH]cnc3c2)cc1
## Result < 10 µM

## Task Try this compound too: C[C@H]1CC[C@@H](CCNC(=O)O[C@@H]2[C@@H](O)CN[C@@H]2Cc2ccc(-c3cnco3)cc2)N1
## Result < 10 µM

## Task Try this compound too: COc1ccc(C[C@H]2NC[C@H](O)[C@H]2OC(=O)NC[C@H]2C[C@@H](N)C2)cc1
## Result < 10 µM

## Task Try this compound too: COc1ccc(C[C@H]2NC[C@H](O)[C@H]2OC(=O)NCC2COC2)cc1
## Result < 10 µM

## Task Try this compound too: O=C(NCC[C@H]1CCCN1)O[C@@H]1[C@@H](O)CN[C@@H]1Cc1ccc(-c2ccc(F)c(F)c2)cc1
## Result 10 to 20 µM

## Task Try this compound too: O=C(NCCC1CCNCC1)O[C@@H]1[C@@H](O)CN[C@@H]1Cc1ccc(-c2ccc3c(c2)CC(F)(F)C3)cc1
## Result > 30 µM

## Task Try this compound too: COc1ccc(C[C@H]2NC[C@H](O)[C@H]2OC(=O)NCc2cccc3cn[nH]c23)cc1
## Result < 10 µM

## Task Try this compound too: O=C(NCc1cccc(C2CNC2)c1)O[C@@H]1[C@@H](O)CN[C@@H]1Cc1ccc(-c2cnco2)cc1
## Result < 10 µM

## Task Try this compound too: O=C(NCC[C@H]1CCOC1)O[C@@H]1[C@@H](O)CN[C@@H]1Cc1ccc(-c2cncs2)cc1
## Result < 10 µM

## Task Try this compound too: COc1ccc(C[C@H]2NC[C@H](O)[C@H]2OC(=O)NCC2CCS(=O)(=O)C2)cc1 (stereo partly shown)
## Result < 10 µM

## Task Try this compound too: O=C(NCC[C@@H]1CCNC1)O[C@@H]1[C@@H](O)CN[C@@H]1Cc1ccc(-c2cnn(C(F)F)c2)cc1
## Result < 10 µM

## Task Try this compound too: O=C(NCCC(O)C(F)(F)F)O[C@@H]1[C@@H](O)CN[C@@H]1Cc1ccc(-c2cnco2)cc1 (stereo partly shown)
## Result < 10 µM

## Task Try this compound too: COc1ccc(C[C@H]2NC[C@H](O)[C@H]2OC(=O)NC2CC3(CCNC3)C2)cc1 (stereo partly shown)
## Result > 30 µM
